- Test system: MALME-3M melanoma
- test.protocol: NCI tumour cell line growth inhibition, 48 h; in the data active = GI50 below about 0.43 µM; inactive = the rest
Classes used: Y (active), N (inactive)

{"columns": ["molecule", "group.label"],
 "data": [
  ["COc1ccc2c(c1OC)CO[C@@H]2[C@H]1c2c(cc3c(c2OC)OCO3)CCN1S(=O)(=O)c1cn(C)cn1", "N"],
  ["CC1=C(SCCC(=O)OC(C[Se]C2=C(C)C(=O)c3ccccc3C2=O)C(=O)NCCCCCC(=O)OCc2ccccc2)C(=O)c2ccccc2C1=O (stereo not drawn)", "N"],
  ["CNC(=O)c1c(NC(=O)c2ccc(C(C)(C)C)cc2)sc2c1CCC(=O)C2", "Y"],
  ["Cc1ccc(/C=N/Nc2nc(Nc3ccccc3)nc(-n3nc(C)cc3C)n2)cc1", "N"],
  ["NC(=O)c1cc([N+](=O)[O-])c(Cl)c([N+](=O)[O-])c1Cl", "N"],
  ["C[CH2][Ge]([CH2]C)([CH2]C)[O]C(=O)C(OC(C)=O)c1ccccc1 (stereo not drawn)", "N"],
  ["Nc1ccc(C2=CC(c3ccc(Cl)cc3)N3C=CSC3=N2)cc1 (stereo not drawn)", "N"],
  ["CCOCCCn1c2c(c3c(O)cccc31)C(=O)c1ccccc1-2", "N"],
  ["COc1ccc2c(c1)c(-c1nc(-c3c[nH]c4ccncc34)cs1)cn2C", "N"],
  ["CC1=C2[C@@H](CC1)[C@]1(C)O[C@@](C(C)C)(C[C@H]1OC(=O)CO)[C@H]2OC(=O)C1CC1c1ccccc1 (stereo partly drawn)", "N"],
  ["CCC(C)[C@H](NC(=O)Nc1cc(C(F)(F)F)cc(C(F)(F)F)c1)C(=O)N[C@@H](Cc1cn(C)cn1)C(=O)OC (stereo partly drawn)", "N"],
  ["COCc1c(-c2cc3cc(C)cc(OC)c3s2)c2c(N)ncnn2c1CN1CCNC(=O)C1", "N"],
  ["COc1ncc(Nc2ncc([C@@H](C)N3CCN(S(C)(=O)=O)CC3)cc2-c2nc(C)nc(N)n2)cc1F", "Y"]
]}

====

- Test system: SW-620 colon
- test.protocol: NCI tumour cell line growth inhibition, 48 h; in the data active means GI50 below about 0.43 µM; inactive means the rest
Classes used: active, inactive

{"columns": ["chemical.string", "group.label"],
 "data": [
  ["O=C(Nc1ccccc1)Nc1ccc2cc3ccc(NC(=O)Nc4ccccc4)cc3nc2c1", "active"],
  ["COCc1c(-c2cc3cc(C)cc(OC)c3s2)c2c(N)ncnn2c1CN1CCNC(=O)C1", "inactive"],
  ["CNC(=O)c1c(NC(=O)c2ccc(C(C)(C)C)cc2)sc2c(CN(C)C)c(O)ccc12", "inactive"],
  ["COC(=O)[C@H](Cc1cnc[nH]1)NC(=O)[C@@H](NC(=O)Nc1cc(C(F)(F)F)cc(C(F)(F)F)c1)C(C)C", "inactive"],
  ["COc1ccc2c(c1OC)CO[C@@H]2[C@H]1c2c(cc3c(c2OC)OCO3)CCN1S(=O)(=O)c1cn(C)cn1", "inactive"],
  ["CCN(CC)CCN1C(=O)c2c(c3c4ccccc4[nH]c3c3ccc4ccccc4c23)C1=O", "inactive"],
  ["COC12C=C/C(=C(/C(=O)OCc3ccccn3)C(=O)CCCCCCCCC3(OC)C=C/C(=C(/C(=O)OCc4ccccn4)C(=O)CCCCCCCC1)O3)O2", "active"]
]}

====

- Test system: OVCAR-3 ovarian
- test.protocol: NCI tumour cell line growth inhibition, 48 h
Each entry gets Not satisfied if its TGI stays under 30 µM, and Satisfied if its TGI is 30 µM or above.

{"columns": ["compound", "group.label"],
 "data": [
  ["Cc1cc(=O)n2nc(CCl)sc2n1", "Not satisfied"],
  ["COc1ccc2c(c1)[nH]c(=O)c1c3cccc(F)c3cn21", "Not satisfied"],
  ["COC(=O)C1Cc2c(n(C)c3ccccc23)C(CCC(=O)O)N1Cc1ccccc1 (configuration not stated)", "Satisfied"],
  ["CC1CC[P+](c2ccccc2)(c2ccccc2)c2c1ccc1ccccc21 (configuration not stated)", "Satisfied"],
  ["NC(=O)c1ccccc1[N+](=O)[O-]", "Satisfied"],
  ["Cc1ccc(-c2nc(N/N=C/c3ccc(O)cc3)c3ccccc3n2)cc1", "Satisfied"],
  ["CCOP(=O)(OCC)C1CCCOC1=O (configuration not stated)", "Satisfied"],
  ["Cc1nc(C)c(N2CCNCC2)c(=O)[nH]1", "Satisfied"],
  ["COc1c2c(c3ccccc3c1O)C1C=CC2C1 (configuration not stated)", "Not satisfied"],
  ["O=C(O)[C@H](NS(=O)(=O)c1ccc(F)cc1)c1ccccc1", "Satisfied"],
  ["Cc1ccc(/C=N/Nc2nc(Nc3ccccc3)nc(-n3nc(C)cc3C)n2)cc1", "Satisfied"],
  ["COc1ccc(/C(COc2ccc3oc(-c4ccccc4)cc(=O)c3c2)=N\\O)cc1", "Not satisfied"]
]}

====

Each entry below lists one item and its recorded TGI value.
- Test system: EKVX NSCLC
- test.protocol: NCI tumour cell line growth inhibition, 48 h
measure.name: TGI

{"columns": ["molecule", "system.under.test", "measure.name", "value.measured"],
 "data": [
  ["COC1=CC(=O)CC(C)C12Oc1c(Cl)c(OC)cc(OC)c1C2=O (stereo unspecified)", "EKVX NSCLC", "TGI", "> 100 µM"],
  ["OCCN(/N=C\\c1ccc2ccccc2c1)C1=NCCN1", "EKVX NSCLC", "TGI", "> 100 µM"],
  ["CSc1ccn(C2CC(F)C(CO)O2)c(=O)n1 (stereo unspecified)", "EKVX NSCLC", "TGI", "> 100 µM"],
  ["CN(C)c1ccc2oc(=O)c3ccccc3c2c1", "EKVX NSCLC", "TGI", "> 100 µM"],
  ["N/C(=N\\N=C\\c1ccc(C(F)(F)F)cc1)NO", "EKVX NSCLC", "TGI", "33.7 µM"],
  ["O=C(/C=C/c1ccccc1F)c1ccc(Cl)c(Cl)c1", "EKVX NSCLC", "TGI", "> 100 µM"],
  ["CN(C)C(=N/O)/C(=N\\O)N(C)C", "EKVX NSCLC", "TGI", "> 100 µM"],
  ["NCC(O)CNC(=O)c1ccc(-c2ccc(-c3ccc(C(=O)NCC(O)CN)cc3)o2)cc1 (stereo unspecified)", "EKVX NSCLC", "TGI", "70.3 µM"],
  ["COc1cc(OC)cc(-c2n/c(=C\\c3c(O)[nH]c4ccc(OC)cc34)cc3c2=Nc2ccccc2-3)c1", "EKVX NSCLC", "TGI", "80.9 µM"],
  ["CC(=O)Oc1c2c(c3n(c1=O)CCCC3)C(=O)N(c1ccccc1)C2=O", "EKVX NSCLC", "TGI", "> 100 µM"],
  ["CNC(=O)c1c(NC(=O)c2ccc(C(C)(C)C)cc2)sc2c1CCC(=O)C2", "EKVX NSCLC", "TGI", "1.7 µM"]
]}

====

- System: SNB-78 CNS
- test.protocol: NCI tumour cell line growth inhibition, 48 h
Each entry below lists one item and its recorded TGI value.
measure.name: TGI

{"columns": ["molecule", "value.measured"],
 "data": [
  ["c1ccc2c3c([nH]c2c1)[C@H]1C2CCCCN2CN1CC3 (stereo not given in full)", "> 100 µM"],
  ["CC1=C(/C=C/C(C)=C/C2CC(N(C)C)=CC(=O)O2)C(C)(C)CCC1 (stereo not given)", "41.9 µM"],
  ["O=C(CC1OC(O)C(Cl)=C1Cl)c1cccnc1 (stereo not given)", "> 100 µM"],
  ["CC(=O)c1c2c(cc3c1CC1(C3)Cc3cc4c(c(C(C)=O)c3C1)CCC4)CCC2", "> 100 µM"],
  ["COc1ccc([C@@H]2CC(=O)N2)cc1", "> 100 µM"]
]}

====

- Test system: K-562 leukemia
- test.protocol: NCI tumour cell line growth inhibition, 48 h

{"columns": ["compound", "unit.label", "result.comparator", "TGI"],
 "data": [
  ["CC1=C(/C=C/C(C)=C/C2CC(N(C)C)=CC(=O)O2)C(C)(C)CCC1 (centres undefined)", "µM", "=", 19.9],
  ["C[CH2][Ge]([CH2]C)([CH2]C)[O]C(=O)C(OC(C)=O)c1ccccc1 (centres undefined)", "µM", ">", 100],
  ["O=c1[nH]cc(Cl)c(=O)[nH]1", "µM", ">", 100],
  ["OC(COC(c1ccccc1)(c1ccccc1)c1ccccc1)C(O)CC1SCCS1 (centres undefined)", "µM", ">", 100],
  ["O=C1CC[C@@]2(O)[C@H]3Cc4ccc(-c5ccccc5)c5c4[C@@]2(CCN3CC2CC2)[C@H]1O5", "µM", "=", 63.7],
  ["COC(=O)C1=C(O)[C@H](C(=O)OC)C2(O)C(C(=O)OC)[C@H](c3ccc(OC(=O)C(C)c4ccc(CC(C)C)cc4)cc3)C[C@@H]1[C@@H]2C(=O)OC (some centres undefined)", "µM", ">", 50],
  ["CNC(=O)c1c(NC(=O)c2ccc(C(C)(C)C)cc2)sc2c(CN(C)C)c(O)ccc12", "µM", "=", 1.32],
  ["CC(C)(C)OC(=O)CN1CCNCCN(CC(=O)OC(C)(C)C)CCNCC1", "µM", ">", 100],
  ["O=C(CCC=C(S(=O)(=O)c1ccccc1)S(=O)(=O)c1ccccc1)c1ccccc1", "µM", "=", 80.4],
  ["CC(=O)c1c2c(cc3c1CC1(C3)Cc3cc4c(c(C(C)=O)c3C1)CCC4)CCC2", "µM", ">", 100],
  ["CCOC(=O)C(Cc1c[nH]c2cc([N+](=O)[O-])ccc12)NS(=O)(=O)c1ccc2ccccc2c1 (centres undefined)", "µM", "=", 39.1],
  ["CCOC(=O)Oc1cc2c(c(OC)c1OC)-c1ccc(OC)c(=O)cc1C(NC(C)=O)CC2 (centres undefined)", "µM", ">", 81.3],
  ["c1ccc2c3c([nH]c2c1)[C@H]1C2CCCCN2CN1CC3 (some centres undefined)", "µM", ">", 100],
  ["COC(=O)c1ccc(C)cc1CC1Cc2ccc(C)cc2C1=O (centres undefined)", "µM", "=", 10.5]
]}
